# experimental.target: ERK5 (Homo sapiens, UniProt Q13164)
# Construct: MEF2-luciferase reporter
# Sequence (Q13164 whole entry): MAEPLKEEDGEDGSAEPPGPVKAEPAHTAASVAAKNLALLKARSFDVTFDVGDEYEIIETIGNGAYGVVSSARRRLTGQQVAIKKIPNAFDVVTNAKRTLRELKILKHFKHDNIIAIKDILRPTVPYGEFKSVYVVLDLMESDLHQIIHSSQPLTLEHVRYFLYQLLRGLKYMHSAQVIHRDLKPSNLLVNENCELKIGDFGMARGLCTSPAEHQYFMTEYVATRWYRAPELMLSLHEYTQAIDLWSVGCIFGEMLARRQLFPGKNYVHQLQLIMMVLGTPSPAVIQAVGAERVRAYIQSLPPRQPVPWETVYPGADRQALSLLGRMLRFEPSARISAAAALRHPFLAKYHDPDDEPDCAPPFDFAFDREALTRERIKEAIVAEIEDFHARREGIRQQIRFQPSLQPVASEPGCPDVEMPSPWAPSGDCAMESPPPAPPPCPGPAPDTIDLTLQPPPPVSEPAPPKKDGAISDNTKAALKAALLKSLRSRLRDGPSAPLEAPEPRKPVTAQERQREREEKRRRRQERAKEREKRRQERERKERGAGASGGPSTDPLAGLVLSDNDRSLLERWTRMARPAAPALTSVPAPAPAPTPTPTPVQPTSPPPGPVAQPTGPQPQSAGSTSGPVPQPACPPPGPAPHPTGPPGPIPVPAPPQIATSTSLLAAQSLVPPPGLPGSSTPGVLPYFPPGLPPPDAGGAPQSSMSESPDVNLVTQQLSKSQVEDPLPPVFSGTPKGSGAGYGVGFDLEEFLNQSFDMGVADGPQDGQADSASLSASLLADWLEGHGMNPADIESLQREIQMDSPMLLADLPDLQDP
# assay.comment: Inhibition of Cellular ERK5 Activity (cell-based assay, MEF2 luciferase reporter in SN12C cells)
# conditions: renal cancer cell line SN12C, doxycycline-induced MEKSDD, mean where repeated
# maps each entry to its IC50
reported.property: IC50

>>> reported_value("Nc1cc(OC(F)(F)F)ccc1C(=O)N1CCC(n2c(=O)[nH]c3ncc(N4CCO[C@H](CO)C4)cc32)CC1")
"870 nM"
>>> reported_value("O=C(c1ccc(OC(F)(F)F)cc1)N1CCC(n2c(=O)[nH]c3ncc(C4CCCC(=NO)CC4)cc32)CC1 (single isomer, unassigned; isomer 1) [Example 64]")
"358 nM"
>>> reported_value("Nc1cc(OC(F)(F)F)ccc1C(=O)N1CCC(n2c(=O)[nH]c3ncc(C4CCNC(=O)C4)cc32)CC1 (racemic)")
"140 nM"
>>> reported_value("Nc1cc(OC(F)(F)F)ccc1C(=O)N1CCC(n2c(=O)[nH]c3ncc(C4CCC4)cc32)CC1")
"213 nM"
>>> reported_value("CO[C@H]1CC[C@H](c2cnc3[nH]c(=O)n(C4CCN(C(=O)c5ccc(OC(F)(F)F)cc5)CC4)c3c2)CC1")
"118 nM"
>>> reported_value("CN1CCC(Oc2cnc3[nH]c(=O)n(C4CCN(C(=O)c5ccc(OC(F)(F)F)cc5)CC4)c3c2)CC1")
"206 nM"
>>> reported_value("O=C(c1ccc(OC(F)(F)F)cc1O)N1CCC(n2c(=O)[nH]c3ncc(C4CCOCC4)cc32)CC1")
"90 nM"
